Value source: paper PMC3151165

Target: T1, mu opioid receptor (Rattus norvegicus, UniProt P33535)
T1 chain: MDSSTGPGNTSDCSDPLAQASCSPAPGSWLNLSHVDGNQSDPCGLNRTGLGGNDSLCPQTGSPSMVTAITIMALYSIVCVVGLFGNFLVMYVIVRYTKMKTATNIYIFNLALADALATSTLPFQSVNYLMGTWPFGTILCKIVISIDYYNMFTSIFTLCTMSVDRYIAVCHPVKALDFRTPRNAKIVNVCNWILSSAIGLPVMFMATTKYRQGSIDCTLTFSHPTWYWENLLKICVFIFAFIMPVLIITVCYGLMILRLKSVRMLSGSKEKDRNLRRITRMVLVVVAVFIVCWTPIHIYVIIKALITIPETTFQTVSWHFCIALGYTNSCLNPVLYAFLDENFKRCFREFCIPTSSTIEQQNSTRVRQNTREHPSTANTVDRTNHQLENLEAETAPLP
Test: radioligand competition
value-kind: Ki (nM)
Numbers only, in nM.

binder | measured-number
YGGFARRARPK (trans -CH=CH- bridge between Ala5 and Ala8 side chains, C-terminal amide) [cyclo[Ala5(-CH=CH-)Ala8]Dyn A-(1-11)NH2 trans (6)] | 36
YAGFARRIRPK (D-Ala2, cis -CH=CH- bridge between residues 2 and 5 side chains, C-terminal amide) [cyclo[D-Ala2(-CH=CH-)Ala5]Dyn A-(1-11)NH2 cis (3)] | 2.33

Go through the items and report each one's Ki.
1. YAGFARRIRPK (trans -CH=CH- bridge between Ala2 and Ala5 side chains, C-terminal amide) [cyclo[Ala2(-CH=CH-)Ala5]Dyn A-(1-11)NH2 trans (2)]
2. YGGFARRARPK (cis -CH=CH- bridge between Ala5 and Ala8 side chains, C-terminal amide) [cyclo[Ala5(-CH=CH-)Ala8]Dyn A-(1-11)NH2 cis (5)]
3. YAGFARRIRPK (cis -CH=CH- bridge between Ala2 and Ala5 side chains, C-terminal amide) [cyclo[Ala2(-CH=CH-)Ala5]Dyn A-(1-11)NH2 cis (1)]

## Result
1: 180; 2: 93; 3: 763
